The reported measurements were obtained from the RNAGym collection of RNA variant scans (doi:10.7554/elife.80360).

Please provide measured self-cleavage for the entries that follow.
B1: Twister Ribozyme (parent)
chain: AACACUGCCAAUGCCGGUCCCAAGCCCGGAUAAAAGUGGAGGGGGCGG

- Variants of: B1
- TEST_SUMMARY: self-cleavage, relative activity (ratio to wild type); higher = more cleavage; co-transcriptional
// no unit string in output, number only

Lookup: Form field: reported self-cleavage of G24C U37A
Found: 0.107

Lookup: Form field: reported self-cleavage of U6A G39C
Found: 0.183

Lookup: Form field: reported self-cleavage of U12C G16A
Found: 0.938

Lookup: Form field: reported self-cleavage of C3U G7C
Found: 0.0424

Lookup: Form field: reported self-cleavage of C5A A30U
Found: 0.498

Lookup: Form field: reported self-cleavage of A4C A40C
Found: 0.0698

Lookup: Form field: reported self-cleavage of C26G A34C
Found: 0.0761

Lookup: Form field: reported self-cleavage of C9A G48U
Found: 0.451

Lookup: Form field: reported self-cleavage of C19G A40C
Found: 0.132

Lookup: Form field: reported self-cleavage of C5A A23G
Found: 0.0488

Lookup: Form field: reported self-cleavage of C20G A22U
Found: 0.122

Lookup: Form field: reported self-cleavage of C19A G43A
Found: 0.355

Lookup: Form field: reported self-cleavage of G17C A40U
Found: 0.0929

Lookup: Form field: reported self-cleavage of U6A U18G
Found: 0.0743

Lookup: Form field: reported self-cleavage of C15U G29C
Found: 0.194

Lookup: Form field: reported self-cleavage of C8G G17C
Found: 0.07

Lookup: Form field: reported self-cleavage of G13U G28A
Found: 0.543

Lookup: Form field: reported self-cleavage of G16U G41A
Found: 0.278

Lookup: Form field: reported self-cleavage of U18A C20U
Found: 0.168

Lookup: Form field: reported self-cleavage of C19G A30G
Found: 0.468

Lookup: Form field: reported self-cleavage of A4C G39C
Found: 0.0869

Lookup: Form field: reported self-cleavage of A33C G44A
Found: 0.832
